Each item that follows carries a reported CC50 at 24 h.
Test: in vitro
Conditions: rat, gh3-tre-luc cells, AC50 (uM) modified / 1000
Where a name gives a salt, the structure may show the parent alone.

Observe how each entry below is paired with its result.
O=C(O)c1cc(Cl)cc(Cl)c1 [3,5-Dichlorobenzoic acid]	> 90 µM
Cc1ccc(C(C)(C)C)c(O)c1 [2-tert-Butyl-5-methylphenol]	81 µM
O=C1NC(=O)C(c2ccccc2)(c2ccccc2)N1 [5,5-Diphenylhydantoin]	> 90 µM
CC(C)(C)NSc1nc2ccccc2s1 [N-tert-Butyl-2-benzothiazolesulfenamide]	> 90 µM
COC(=O)c1ccc(C)cc1 [Methyl 4-methylbenzoate]	> 90 µM
CCn1cc(C(=O)O)c(=O)c2cc3c(cc21)OCO3 [Oxolinic acid]	> 90 µM
CN(C)CCCN1c2ccccc2C(C)(C)c2ccccc21 [Dimetacrine]	14.8 µM
CC(=O)O[C@H](CC(=O)[O-])C[N+](C)(C)C [Acetyl-L-carnitine hydrochloride]	> 90 µM

## Input State, in one line, measured CC50 at 24 h of O=c1c(O)c(-c2ccc(O)cc2O)oc2cc(O)cc(O)c12 [Morin hydrate]
## Output > 90 µM

* * *

Experiment: in vitro
Settings: rat, gh3-tre-luc cells, AC50 (uM) modified / 1000, Tox21_110001=Tox21_400083; viability, 1 nM T3 present, 24 h
MEASURED ATTRIBUTE: CC50 at 24 h

## Input Using known records, supply CC50 at 24 h for `O=S(=O)(O)C(F)(F)C(F)(F)C(F)(F)C(F)(F)C(F)(F)C(F)(F)C(F)(F)C(F)(F)F`
## Output > 90 µM

* * *

Parameter: CC50 at 24 h. Scope: all listed entries.
Assay: in vitro
Settings: rat, gh3-tre-luc cells, AC50 (uM) modified / 1000
Where a name gives a salt, the structure may show the parent alone.

// known answers, use as guide
CCCCCO	> 90 µM
CCN(CC#N)c1cccc(C)c1	> 90 µM
CCOC(=O)[C@@H](N)CS [Ethyl L-cysteinate hydrochloride]	> 50 µM
CC(=O)OCC(=O)Nc1cc(C#N)cc(NC(=O)COC(C)=O)c1Cl	> 50 µM
O=C1NCCN1c1ncc([N+](=O)[O-])s1	> 20 µM

## Input Give CC50 at 24 h for CC(O)CN (stereo not shown)
## Output > 90 µM

## Input Report CC50 at 24 h, nothing else, for this compound: CC(=O)CC(c1ccc([N+](=O)[O-])cc1)c1c(O)c2ccccc2oc1=O (stereo not shown)
## Output > 20 µM

## Input Look up and state reported CC50 at 24 h for `NC(=O)CC[C@@H]1NC(=O)[C@H](Cc2ccccc2)NC(=O)[C@H](Cc2ccc(O)cc2)NC(=O)CCSSC[C@@H](C(=O)N2CCC[C@H]2C(=O)N[C@H](CCCN=C(N)N)C(=O)NCC(N)=O)NC(=O)[C@H](CC(N)=O)NC1=O`
## Output > 50 µM

## Input Read off the recorded CC50 at 24 h for `CO[C@H]1C[C@H](O[C@H]2[C@H](C)O[C@@H](O[C@@H]3/C(C)=C/C[C@@H]4C[C@@H](C[C@]5(C=C[C@H](C)[C@@H](C6CCCCC6)O5)O4)OC(=O)[C@@H]4C=C(C)[C@@H](O)[C@H]5OC/C(=C\C=C\[C@@H]3C)[C@]54O)C[C@@H]2OC)O[C@@H](C)[C@@H]1O`
## Output 2.94 µM

## Input Answer with the recorded CC50 at 24 h for the compound listed here: `FC(F)(F)C(Cl)(Cl)Cl`
## Output > 90 µM

* * *

Assay: in vitro
Details: rat, gh3-tre-luc cells, AC50 (uM) modified / 1000, Tox21_110001=Tox21_301328; viability, 1 nM T3 present, 24 h
MEASURED ATTRIBUTE: CC50 at 24 h

## Input Output measured CC50 at 24 h for this item: COP(N)(=S)Oc1ccccc1C(=O)OC(C)C (stereo not shown) [Isocarbophos]
## Output > 90 µM

* * *

Assay: in vitro
Settings: rat, gh3-tre-luc cells, AC50 (uM) modified / 1000, Tox21_110001=Tox21_112870; viability, 1 nM T3 present, 24 h
MEASURED ATTRIBUTE: CC50 at 24 h (µM)
Please reply with the bare figure in µM and do not write the unit itself.

## Input Output measured CC50 at 24 h for this item: Cc1nc2ccccc2c(=O)n1-c1ccccc1Cl [Mecloqualone]
## Output 42.7

* * *

Assay: in vitro
Settings: rat, gh3-tre-luc cells, AC50 (uM) modified / 1000, Tox21_110001=Tox21_302734; viability, 1 nM T3 present, 24 h
MEASURED ATTRIBUTE: CC50 at 24 h

## Input Output measured CC50 at 24 h for this item: `Oc1ccc(-c2ccccc2)cc1`
## Output > 90 µM

* * *

Assay: in vitro
Conditions: rat, gh3-tre-luc cells, AC50 (uM) modified / 1000, Tox21_110001=Tox21_400063; viability, 1 nM T3 present, 24 h
MEASURED ATTRIBUTE: CC50 at 24 h

## Input Entry `c1cc2ccc3cccc4ccc(c1)c2c34` needs its CC50 at 24 h filled in; supply it.
## Output > 100 µM

* * *

Test system: GH3-TRE-Luc cell line
Details: read-out: AC50 (uM) modified / 1000; Tox21_110001=Tox21_400003; viability, 1 nM T3 present, 24 h
MEASURED ATTRIBUTE: CC50 (µM)
The answer is to be given in µM; state only the numeric part.

## Input State, in one line, measured CC50 of CC(C)(C)c1ccc(O)c(O)c1 [4-tert-Butylcatechol]
## Output 49.3

* * *

Experiment: in vitro
Settings: rat, gh3-tre-luc cells, AC50 (uM) modified / 1000
MEASURED ATTRIBUTE: CC50 at 24 h

CN1C(C(=O)Nc2ccccn2)=C(O)c2sccc2S1(=O)=O	> 20 µM
O=C1N(c2ccccc2)c2ccccc2C1(Cc1ccncc1)Cc1ccncc1	> 50 µM
NS(=O)(=O)c1cc2c(cc1Cl)NC(Cc1ccccc1)NS2(=O)=O (stereo not shown) [Benzylhydrochlorothiazide]	> 50 µM
C#C[C@]1(O)C=C[C@H]2[C@@H]3CCC4=CC(=O)CC[C@@H]4[C@H]3CC[C@@]21CC	> 50 µM
CC1(C)O[C@@H]2C[C@H]3[C@@H]4C[C@H](F)C5=CC(=O)C=C[C@]5(C)[C@H]4[C@@H](O)C[C@]3(C)[C@]2(C(=O)CO)O1 [Flunisolide]	> 20 µM
c1ccc2cc(Nc3ccc(Nc4ccc5ccccc5c4)cc3)ccc2c1	> 90 µM

Pending compound:
## Input Name the recorded CC50 at 24 h of the item CC1(C)CCC[C@]2(C)[C@H]3CC(=O)O[C@]3(C)CC[C@@H]12 [(3aR)-(+)-Sclareolide] in your answer.
## Output 64.9 µM

* * *

Experiment: in vitro
Details: rat, gh3-tre-luc cells, AC50 (uM) modified / 1000, Tox21_110001=Tox21_112852; viability, 1 nM T3 present, 24 h
MEASURED ATTRIBUTE: CC50 at 24 h

## Input Look up CC50 at 24 h of CC(Cc1ccc2c(c1)OCO2)NO (stereo not shown) and report it.
## Output > 100 µM

* * *

Assay: in vitro
Details: rat, gh3-tre-luc cells, AC50 (uM) modified / 1000, Tox21_110001=Tox21_201157; viability, 1 nM T3 present, 24 h
MEASURED ATTRIBUTE: CC50 at 24 h

## Input Report measured CC50 at 24 h; entry is CC(C)CC(C)N (stereo not shown)
## Output > 90 µM

* * *

Experiment: in vitro
Settings: rat, gh3-tre-luc cells, AC50 (uM) modified / 1000, Tox21_110001=Tox21_301058; viability, 1 nM T3 present, 24 h
MEASURED ATTRIBUTE: CC50 at 24 h (µM)
Answer in µM, number only, no unit symbol.

## Input Give me measured CC50 at 24 h, please, for this compound: N#CSCSC#N [Methylene bis(thiocyanate)]
## Output 5.63

* * *

Test system: GH3-TRE-Luc cell line
Settings: read-out: AC50 (uM) modified / 1000; Tox21_110001=Tox21_302369; viability, 1 nM T3 present, 24 h
Counter-ions that a name gives are not always drawn.
MEASURED ATTRIBUTE: CC50
Just the number plus its unit, please.

## Input State its CC50: O=C(c1ccc(OCCN2CCCCC2)cc1)c1c(-c2ccc(O)cc2)sc2cc(O)ccc12 [Raloxifene hydrochloride]
## Output 2.98 µM

* * *

Assay: in vitro
Conditions: rat, gh3-tre-luc cells, AC50 (uM) modified / 1000, Tox21_110001=Tox21_200983; viability, 1 nM T3 present, 24 h
MEASURED ATTRIBUTE: CC50 at 24 h

## Input Provide one value: measured CC50 at 24 h of `CC(C)CCON=O`
## Output > 90 µM
